ASSAY_REMARKS: Drug library screen, cell viability (CellTiter-Glo)
Assay type: cell-based, human
TEST_PARAMETERS: human; HCT116 ARID1A-WT; 10 μM for 5 days; relative to cells treated with solvent (DMSO); read-out: Cell viability, WT
Rule: measured viability at 5 days, 10 μM below 50% gets True; anything equal to or greater than 50% gets False.

[[record]]
compound = "Cc1cc(N)c2ccccc2[n+]1CCCCCCCCCC[n+]1c(C)cc(N)c2ccccc21 [Dequalinium]"
class_label = "True"


Next:
Hello, is viability at 5 days, 10 μM of the following compound strictly smaller than 50%? COc1cc(Nc2ncc3c(n2)-c2ccc(Cl)cc2C(c2c(F)cccc2OC)=NC3)ccc1C(=O)O [MLN8237] True
